Here, each record is paired with measured His-ZAP cell killing, cyno PSMA Average EC50 data.
target: cynomolgus PSMA, full-length, on CHO cells (cynomolgus, UniProt A0A2K5VNZ0 1-750); assay: cell-based or functional assay
endpointName: His-ZAP cell killing, cyno PSMA Average EC50 (pM)

{"binder": "1.11-6GS-2.22 (bispecific antibody, linker (G4S)6; also called 1.11-2.22; 1.11-6GS-2.22His) EVQLLESGGGLVQPGGSLRLSCAASGFSFSSYALSWVRQAPGKGLEWVSSIGENNDTTDYADNVKGRFTISRDNSKNTLYLQMNSLRVEDTAVYYCVKDGVHWGQGTLVTVSSGGGGSGGGGSGGGGSGGGGSGGGGSGGGGSEVQLVESGGGVVQPGRSLRLSCAASGFSFSGYGTHWVRQAPGKGLEWVAYISYDGSNKYYAAPVKGRFTISRDNSKNTLYLQMNSLRAEDTAVYYCAKDAAWGLRLGESSSYDFDIWGQGTMVTVSS", "unitLabel": "pM", "val": 9.5}
{"binder": "1.18-6GS-2.22 (bispecific antibody, linker (G4S)6) EVQLLESGGGLVQPGGSLRLSCAASGFSFSSYALSWVRQAPGKGLEWVSSIGENNATTDYAASVKGRFTISRDNSKNTLYLQMNSLRVEDTAVYYCVKDGVHWGQGTLVTVSSGGGGSGGGGSGGGGSGGGGSGGGGSGGGGSEVQLVESGGGVVQPGRSLRLSCAASGFSFSGYGTHWVRQAPGKGLEWVAYISYDGSNKYYAAPVKGRFTISRDNSKNTLYLQMNSLRAEDTAVYYCAKDAAWGLRLGESSSYDFDIWGQGTMVTVSS", "unitLabel": "pM", "val": 14}
{"binder": "1.11-6GS-2.17 (bispecific antibody, linker (G4S)6) EVQLLESGGGLVQPGGSLRLSCAASGFSFSSYALSWVRQAPGKGLEWVSSIGENNDTTDYADNVKGRFTISRDNSKNTLYLQMNSLRVEDTAVYYCVKDGVHWGQGTLVTVSSGGGGSGGGGSGGGGSGGGGSGGGGSGGGGSEVQLVESGGGVVQPGRSLRLSCAASGFSFSGYGMHWVRQAPGKGLEWVAYISYDASNKYYADNVKGRFTISRDNSKNTLYLQMNSLRAEDTAVYYCAKDPAWGLRLGESSSYDFDIWGQGTMVTVSS", "unitLabel": "pM", "val": 8.1}
{"binder": "1.1-6GS-2.17 (bispecific antibody) EVQLLESGGGLVQPGGSLRLSCAASGFSFSSYAMSWVRQAPGKGLEWVSSIGENDGTTDYADSVKGRFTISRDNSKSMLYLQMNSLRVEDTAVYYCVKDGVHWGQGTLVTVSSGGGGSGGGGSGGGGSGGGGSGGGGSGGGGSEVQLVESGGGVVQPGRSLRLSCAASGFSFSGYGMHWVRQAPGKGLEWVAYISYDASNKYYADNVKGRFTISRDNSKNTLYLQMNSLRAEDTAVYYCAKDPAWGLRLGESSSYDFDIWGQGTMVTVSS", "unitLabel": "pM", "val": 11}
{"binder": "1.11-6GS-2.15 (bispecific antibody) EVQLLESGGGLVQPGGSLRLSCAASGFSFSSYALSWVRQAPGKGLEWVSSIGENNDTTDYADNVKGRFTISRDNSKNTLYLQMNSLRVEDTAVYYCVKDGVHWGQGTLVTVSSGGGGSGGGGSGGGGSGGGGSGGGGSGGGGSEVQLVESGGGVVQPGRSLRLSCAASGFSFSGYGLHWVRQAPGKGLEWVAYISYDKSNKYYADKVKGRFTISRDNSKNTLYLQMNSLRAEDTAVYYCAKDPAWGLRLGESSSYDFDIWGQGTMVTVSS", "unitLabel": "pM", "val": 9}
